Cited source: paper PMC4483627

# IC50 per entry
- TARGET_SYSTEM: rat nAChR α3β4 (Rattus norvegicus, UniProt P04757+P12392)
- Construct: expressed in transfected cells; host or cells: Xenopus oocytes injected with cRNA
- Sequence (P04757 26-499 limits assumed): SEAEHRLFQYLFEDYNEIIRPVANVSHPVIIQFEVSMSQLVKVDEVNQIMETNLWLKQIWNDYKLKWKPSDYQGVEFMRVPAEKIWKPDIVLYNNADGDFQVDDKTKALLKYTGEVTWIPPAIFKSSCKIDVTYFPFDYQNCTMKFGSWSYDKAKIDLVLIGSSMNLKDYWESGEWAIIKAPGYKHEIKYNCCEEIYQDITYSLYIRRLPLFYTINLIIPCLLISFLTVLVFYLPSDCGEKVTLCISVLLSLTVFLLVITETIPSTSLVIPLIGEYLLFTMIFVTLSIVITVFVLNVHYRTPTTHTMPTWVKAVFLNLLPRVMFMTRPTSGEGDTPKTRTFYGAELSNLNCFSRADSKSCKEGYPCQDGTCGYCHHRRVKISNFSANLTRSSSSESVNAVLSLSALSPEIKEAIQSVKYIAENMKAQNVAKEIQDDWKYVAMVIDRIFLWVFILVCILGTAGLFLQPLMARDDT
- Sequence (P12392 21-495 limits assumed): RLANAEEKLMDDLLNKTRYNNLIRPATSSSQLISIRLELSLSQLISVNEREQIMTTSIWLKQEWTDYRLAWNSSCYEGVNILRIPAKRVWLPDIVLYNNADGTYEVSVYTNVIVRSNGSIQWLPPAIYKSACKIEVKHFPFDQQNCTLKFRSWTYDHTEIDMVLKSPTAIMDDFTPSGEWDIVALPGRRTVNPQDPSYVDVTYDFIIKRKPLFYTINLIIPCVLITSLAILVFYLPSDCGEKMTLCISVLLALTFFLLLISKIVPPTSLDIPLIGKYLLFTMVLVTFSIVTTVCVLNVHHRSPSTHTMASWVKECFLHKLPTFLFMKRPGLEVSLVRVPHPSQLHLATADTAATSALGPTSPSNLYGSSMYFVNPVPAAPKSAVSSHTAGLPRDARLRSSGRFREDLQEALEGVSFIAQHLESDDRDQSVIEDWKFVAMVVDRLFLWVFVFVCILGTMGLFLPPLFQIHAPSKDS
- METHOD_SUMMARY: cell-based
Positions of bridges follow the written chain, without caps; N, C: chain ends. Residues, ends and D or L forms follow the SMILES beside them.
Please state the figure in nM; there is no need to write the unit.

Some compounds with recorded IC50:
# COMPOUND, OUTPUT_UNIT, IC50
rows = [
    ("CC(C)C[C@@H]1NC(=O)[C@H](CCC(=O)O)NC(=O)[C@@H]2CCCN2C(=O)[C@H](Cc2c[nH]cn2)NC(=O)[C@H](CC(N)=O)NC(=O)[C@H](C(C)C)NC(=O)[C@H](Cc2c[nH]cn2)NC(=O)[C@@H]2CSSC[C@H](NC(=O)[C@H](CCC(=O)O)NC(=O)[C@@H]3CCCN3)C(=O)N[C@@H](CSSC[C@@H](C(N)=O)NC1=O)C(=O)N[C@@H]([C@@H](C)O)C(=O)N[C@@H](Cc1c[nH]cn1)C(=O)N1CCC[C@H]1C(=O)N[C@@H](C)C(=O)N2 [Mr1.7[S12N]] (H-PECCTHPACHVNHPELC-NH2; disulfide 3-9, 4-17)", "nM", 850),
    ("CC(C)C[C@@H]1NC(=O)[C@H](CCC(=O)O)NC(=O)[C@@H]2CCCN2C(=O)[C@H](Cc2c[nH]cn2)NC(=O)[C@H](CC(N)=O)NC(=O)[C@H](C(C)C)NC(=O)[C@H](Cc2c[nH]cn2)NC(=O)[C@@H]2CSSC[C@H](NC(=O)[C@H](C)NC(=O)[C@@H]3CCCN3)C(=O)N[C@@H](CSSC[C@@H](C(N)=O)NC1=O)C(=O)N[C@@H]([C@@H](C)O)C(=O)N[C@@H](Cc1c[nH]cn1)C(=O)N1CCC[C@H]1C(=O)N[C@@H](C)C(=O)N2 [Mr1.7[E2A,S12N]] (H-PACCTHPACHVNHPELC-NH2; disulfide 3-9, 4-17)", "nM", 556),
]

Could you share which IC50 value was measured for CC(C)C[C@@H]1NC(=O)[C@H](CCC(=O)O)NC(=O)[C@@H]2CCCN2C(=O)[C@H](Cc2c[nH]cn2)NC(=O)[C@H](CC(N)=O)NC(=O)CNC(=O)[C@H](Cc2c[nH]cn2)NC(=O)[C@@H]2CSSC[C@H](NC(=O)CN)C(=O)N[C@@H](CSSC[C@@H](C(N)=O)NC1=O)C(=O)N[C@@H]([C@@H](C)O)C(=O)N[C@@H](Cc1c[nH]cn1)C(=O)N1CCC[C@H]1C(=O)N[C@@H](C)C(=O)N2 [Mr1.7[E2G,V11G,S12N,Δ1]] (H-GCCTHPACHGNHPELC-NH2; disulfide 2-8, 3-16; N-terminus assumed) ?
125
